// inhibition at 1 µM lookup, one value per entry
# study_system: HIV-1 protease (Human immunodeficiency virus type 1 group M subtype B)
# protocol_details: biochemical
# assay_setup: read-out: HIV-1 Protease % Inhib, dose 1.000 uM

molecule: O=c1oc2ccccc2c(O)c1C1CCOc2ccccc21 (stereo not shown) [Example 158]
study_system: HIV-1 protease (Human immunodeficiency virus type 1 group M subtype B)
inhibition at 1 µM: < 10%

molecule: CCC(c1cccc(NC(=O)CCc2cccc3ccccc23)c1)c1c(O)c2ccccc2oc1=O (stereo not shown) [Example 64]
study_system: HIV-1 protease (Human immunodeficiency virus type 1 group M subtype B)
inhibition at 1 µM: 29.1%

molecule: CCC(c1cccc(C(=O)NCc2nc3ccccc3[nH]2)c1)c1c(O)c2ccccc2oc1=O (stereo not shown) [Example 148]
study_system: HIV-1 protease (Human immunodeficiency virus type 1 group M subtype B)
inhibition at 1 µM: < 10%

// below: inhibition at 1 µM requested for another molecule
stdin: Request - read-out inhibition at 1 µM | tested on HIV-1 protease (Human immunodeficiency virus type 1 group M subtype B) | molecule CC(c1cccc(C(=O)NCc2nc3ccccc3[nH]2)c1)c1c(O)c2ccccc2oc1=O (stereo not shown) [Example 26]
stdout: < 10%

* * *

// inhibition at 10 µM lookup, one value per entry
# study_system: HIV-1 protease (Human immunodeficiency virus type 1 group M subtype B, UniProt P04585)
# protocol_details: biochemical
# assay_setup: read-out: HIV-1 Protease % Inhib, dose 10.000 uM
# unit: % | format: bare number

The following compounds have reported results that may help.
compound: CC(Cc1c(O)c2ccccc2oc1=O)c1ccccc1 (stereo not shown) [Example 5, 4-Hydroxy-3-(2-phenylpropyl)coumarin]
inhibition at 10 µM [%]: 55.4
//
compound: Nc1cc(NS(=O)(=O)c2ccccc2)cc(C(c2c(O)c3c(oc2=O)CCCCCC3)C2CC2)c1 (stereo not shown) [Example 486]
inhibition at 10 µM [%]: 126
//
compound: C[C@@H](NC(=O)OC(C)(C)C)C(=O)Nc1cccc(C(c2c(O)c3c(oc2=O)CCCCCC3)C2CC2)c1 (stereo partly shown) [Example 203]
inhibition at 10 µM [%]: 104

// below: inhibition at 10 µM requested for another compound
stdin: Given the compound CCCC(c1cccc(NS(=O)(=O)c2ccc(C#N)cc2)c1)c1c(O)c2c(oc1=O)CCCCCC2 (single isomer, unassigned) [Example 437] , what is its reported inhibition at 10 µM?
stdout: 112

* * *

// HIV-1 Protease % Inhib lookup, one value per entry
# study_system: UniProt:P04585
# protocol_details: biochemical
# assay_setup: dose 0.370 uM
# unit: % | format: bare number

stdin: Given the molecule O=c1oc2c(c(O)c1C(c1ccccc1)C1CC1)CCCCCC2CC1CCCO1 (single isomer, unassigned) , what is its reported HIV-1 Protease % Inhib?
stdout: 73.44

* * *

# study_system: UniProt:P04585
# protocol_details: biochemical
# assay_setup: read-out: HIV-1 Protease % Inhib, dose 1.100 uM
measurement_name: inhibition at 1.1 µM

The following compounds have reported results that may help.
compound: CC(C)CC(c1cccc(NS(=O)(=O)c2cccc3cccnc23)c1)c1c(O)c2c(oc1=O)CCCCCC2 (stereo not drawn) [Example 428]
test_value: 86.5%

compound: C=CS(=O)(=O)Nc1cccc(C(c2c(O)c3c(oc2=O)CCCCCC3)C2CC2)c1 (stereo not drawn) [Example 316]
test_value: 77.8%

compound: O=c1oc2c(c(O)c1C(c1ccccc1)c1ccccc1)CCCCCC2 [Example 481]
test_value: 51.2%

stdin: Given the compound O=C(NCc1ccc(S(=O)(=O)Nc2cccc(C(c3c(O)c4c(oc3=O)CCCCCC4)C3CC3)c2)s1)c1ccccc1 (stereo not drawn) [Example 296] , what is its reported inhibition at 1.1 µM?
stdout: 95.5%

stdin: Given the compound O=c1oc2c(c(O)c1C(c1cccc(NS(=O)(=O)c3ccc(OC(F)(F)F)cc3)c1)C1CC1)CCCCCC2 (stereo not drawn) [Example 312] , what is its reported inhibition at 1.1 µM?
stdout: 89.7%

stdin: Given the compound CN(C)c1ccc(S(=O)(=O)Nc2cccc(C(c3c(O)c4c(oc3=O)CCCCCC4)C3CC3)c2)cc1 (stereo not drawn) [Example 352] , what is its reported inhibition at 1.1 µM?
stdout: 97.9%

stdin: Given the compound CS(=O)(=O)Nc1cccc(C(c2c(O)c3c(oc2=O)CCCCC3)C2CC2)c1 (stereo not drawn) [Example 364] , what is its reported inhibition at 1.1 µM?
stdout: 53.5%

stdin: Given the compound O=c1oc2c(c(O)c1C(c1cccc(NS(=O)(=O)c3cc(Cl)ccc3Cl)c1)C1CC1)CCCCCC2 (stereo not drawn) [Example 271] , what is its reported inhibition at 1.1 µM?
stdout: 47.5%

stdin: Given the compound O=c1oc2c(c(O)c1C(c1cccc(NS(=O)(=O)c3ccc(S(=O)(=O)c4ccccc4)s3)c1)C1CC1)CCCCCC2 (stereo not drawn) [Example 299] , what is its reported inhibition at 1.1 µM?
stdout: 97.5%

stdin: Given the compound N#Cc1ccc(S(=O)(=O)Nc2cccc(C(c3c(O)c4c(oc3=O)CCCCCC4)C3CC3)c2)cc1 (stereo not drawn) [Example 262] , what is its reported inhibition at 1.1 µM?
stdout: 113%

stdin: Given the compound O=c1oc2c(c(O)c1C(c1cccc(NS(=O)(=O)c3cccc(N4CCCS4(=O)=O)c3)c1)C1CC1)CCCCCC2 (stereo not drawn) [Example 357] , what is its reported inhibition at 1.1 µM?
stdout: 101%

stdin: Given the compound O=c1oc2c(c(O)c1C(c1cccc(NS(=O)(=O)c3ccc(CBr)cc3)c1)C1CC1)CCCCCC2 (stereo not drawn) [Example 403] , what is its reported inhibition at 1.1 µM?
stdout: 92.9%

stdin: Given the compound CCCCC(c1cccc(NS(=O)(=O)c2ccc(F)cc2)c1)c1c(O)c2c(oc1=O)CCCCCC2 (stereo not drawn) [Example 422] , what is its reported inhibition at 1.1 µM?
stdout: 96.5%

stdin: Given the compound CCCC(c1cccc(NS(=O)(=O)c2cccnc2)c1)c1c(O)c2c(oc1=O)CCCCCC2 (stereo not drawn) [Example 433] , what is its reported inhibition at 1.1 µM?
stdout: 104%

stdin: Given the compound O=c1oc2c(c(O)c1C(c1cccc(NS(=O)(=O)c3cccc(NCCO)c3)c1)C1CC1)CCCCCC2 (stereo not drawn) [Example 355 (First Title Compound)] , what is its reported inhibition at 1.1 µM?
stdout: 115%

* * *

# study_system: HIV-1 protease (Human immunodeficiency virus type 1 group M subtype B, UniProt P04585)
# protocol_details: biochemical
# assay_setup: read-out: HIV-1 Protease % Inhib, dose 3.300 uM
// inhibition at 3.3 µM lookup, one value per entry
# unit: % | format: bare number

The following molecules have reported results that may help.
molecule: O=c1oc2c(c(O)c1C(c1cccc(NS(=O)(=O)c3cccc(CO)c3)c1)C1CC1)CCCCCC2 (stereo not drawn)
test_value: 101

molecule: CC(C)(C)OC(=O)N[C@H](Cc1c[nH]cn1)C(=O)Nc1cccc(C(c2c(O)c3c(oc2=O)CCCCCC3)C2CC2)c1 (stereo partly drawn)
test_value: 114

molecule: O=c1oc2c(c(O)c1C(c1ccccc1)C1CC1)CCCCCC2CC1CC1 (stereo not drawn)
test_value: 106

stdin: Given the molecule C[C@H](NC(=O)OC(C)(C)C)C(=O)Nc1cccc(C(c2c(O)c3c(oc2=O)CCCCCC3)C2CC2)c1 (stereo partly drawn) , what is its reported inhibition at 3.3 µM?
stdout: 111

stdin: Given the molecule O=C(CCN1CCCCC1)Nc1cccc(C(c2c(O)c3c(oc2=O)CCCCCC3)C2CC2)c1 (stereo not drawn) , what is its reported inhibition at 3.3 µM?
stdout: 94.2

stdin: Given the molecule O=c1oc2c(c(O)c1C(c1cccc(NS(=O)(=O)c3cccc4nonc34)c1)C1CC1)CCCCCC2 (stereo not drawn) , what is its reported inhibition at 3.3 µM?
stdout: 119

stdin: Given the molecule CCS(=O)(=O)Nc1cccc(C(c2c(O)c3c(oc2=O)CCCCCC3)C2CC2)c1 (stereo not drawn) , what is its reported inhibition at 3.3 µM?
stdout: 99.7

stdin: Given the molecule O=c1oc2c(c(O)c1C(c1cccc(NS(=O)(=O)CCCCl)c1)C1CC1)CCCCCC2 (stereo not drawn) , what is its reported inhibition at 3.3 µM?
stdout: 119

* * *

# study_system: HIV-1 protease (Human immunodeficiency virus type 1 group M subtype B, UniProt P04585)
# protocol_details: biochemical
# assay_setup: read-out: HIV-1 Protease % Inhib, dose 10.000 uM
// inhibition at 10 µM lookup, one value per entry
# unit: % | format: bare number

The following molecules have reported results that may help.
molecule: O=c1oc2c(c(O)c1C(c1cccc(NS(=O)(=O)c3ccc(NS(=O)(=O)c4ccccc4)cc3)c1)C1CC1)CCCCCC2 (stereo not drawn)
measurement_name: inhibition at 10 µM
test_value: 96.7

molecule: CC(C)(C)OC(=O)NCC(=O)Nc1cccc(C(c2c(O)c3c(oc2=O)CCCCCC3)C2CC2)c1 (single isomer, unassigned) [Example 238]
measurement_name: inhibition at 10 µM
test_value: 116

// below: inhibition at 10 µM requested for another molecule
stdin: Request - read-out inhibition at 10 µM | tested on HIV-1 protease (Human immunodeficiency virus type 1 group M subtype B, UniProt P04585) | molecule CC(C)C(c1cccc(NS(=O)(=O)c2cccc3cccnc23)c1)c1c(O)c2c(oc1=O)CCCCCC2 (stereo not drawn)
stdout: 98.6
